Below: a set of entries, each annotated with reported IC50.
biological target: Induced myeloid leukemia cell differentiation protein Mcl-1 (Homo sapiens); type: functional
Sequence (Q07820 whole entry): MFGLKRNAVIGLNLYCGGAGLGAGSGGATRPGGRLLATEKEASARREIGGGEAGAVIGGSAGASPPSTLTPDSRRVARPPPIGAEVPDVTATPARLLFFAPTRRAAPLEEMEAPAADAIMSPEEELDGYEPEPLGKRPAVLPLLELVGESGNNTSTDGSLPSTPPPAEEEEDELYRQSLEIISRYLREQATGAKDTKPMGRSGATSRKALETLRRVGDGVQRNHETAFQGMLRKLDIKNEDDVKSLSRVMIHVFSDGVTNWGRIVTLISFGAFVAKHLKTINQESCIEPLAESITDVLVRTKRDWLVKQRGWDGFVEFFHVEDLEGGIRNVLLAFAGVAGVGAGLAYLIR
Active and inactive are the calls of the source.

# count of solved cases: 3
• COc1cc(C2C3=C(O)c4ccccc4C3=Nc3nc(N)nc(O)c32)ccc1O (stereo unspecified) = 2.76 µM (active)
• O=C(Nc1ccc(S(=O)(=O)Nc2nccs2)cc1)c1cc(-c2ccncc2)nc2ccccc12 = 1.64 µM (active)
• Cc1ccc(Cn2c(=N)c(C(=O)NCc3ccco3)cc3c(=O)n4ccccc4nc32)cc1 = 3.14 µM (active)

Notebook entry, Induced myeloid leukemia cell differentiation protein Mcl-1 (Homo sapiens) assay: IC50 of CCN(c1ccc(NC(=O)COC(=O)/C=C/c2cccs2)cc1)C(C)C = ?
3.34 µM (active)

Cool, now Cc1nc(C)c(C(=O)Nc2nc3c(C)cccc3s2)o1
3.36 µM (active)

Cool, now O=C(O)CC(CCc1ccccc1)OC1OC(CO)C(O)C(O)C1O (stereo unspecified)
1.61 µM (active)
